Listed binders paired with reported kon
# measurement_target: T1, pig serum albumin (pig, UniProt P08835 25-607)
# T1 construct: bought protein, amine-coupled to a CM5 chip; also called Pig SA
# protocol_description: SPR (Biacore 8K), albumin immobilised, 25 C, 1:1 kinetics
# Procedure: Immobilization of serum albumin to a Series S Sensor Chip CM5 surface is performed according to the manufacturer's instructions (Amine Coupling Kit BR-1000-50). Briefly, carboxyl groups on the sensor chip surfaces (flow cell 1 and 2) are activated by injecting 70 μL of a mixture containing 75 mg/ml EDC and 11.5 mg/ml NHS at 10 μL/min. […]
# unit: M⁻¹ s⁻¹ | format: bare number

Sample records with kon:
{"columns": ["binder", "units_text", "kon"],
 "data": [
  ["INS Analog 29 (other, single-chain insulin B-L2-A-L1-VHH fusion; also called Ex. 29) FVSQHLCGSHLVEALRLVCGERGFHYTPKTGGGGGGGIVEQCCHSICSLYQLENYCGGGGGQGGGGQGGGGQGGGGQGGGGQEVQLLESGGGLVQPGGSLRLSCAASGRYIDETAVAWFRQAPGKEREFVAGIGGGVDITYYADSVKGRFTISRDNSKNTLYLQMNSLRPEDTAVYYCAARPGRPLITSKVADLYPYWGQGTLVTVSSPP", "M⁻¹ s⁻¹", 150000],
  ["INS Analog 23 (other, single-chain insulin B-L2-A-L1-VHH fusion; also called Ex. 23) FVSQHLCGSHLVEALHLVCGERGFHYTPKTGGGGGGGIVEQCCHSICSLEQLENYCGGGGGQGGGGQGGGGQGGGGQGGGGQEVQLLESGGGLVQPGGSLRLSCAASGRYIDETAVAWFRQAPGKEREFVAGIGGGVDITYYADSVKGRFTISRDNSKNTLYLQMNSLRPEDTAVYYCAARPGRPLITSKVADLYPYWGQGTLVTVSSPP", "M⁻¹ s⁻¹", 95000]
]}

Then this binder:
Enquiry: Respond only with kon recorded for INS Analog 24 (other, single-chain insulin B-L2-A-L1-VHH fusion; also called Ex. 24) FVSQHLCGSHLVEALHLVCGERGFHYTPKTGGGGGGGIVEQCCHSICSLEQLENYCGPGPQPGPQPGPQPGPQPGPQPGPQPGPQPGPQEVQLLESGGGLVQPGGSLRLSCAASGRYIDETAVAWFRQAPGKEREFVAGIGGGVDITYYADSVKGRFTISRDNSKNTLYLQMNSLRPEDTAVYYCAARPGRPLITSKVADLYPYWGQGTLVTVSSPP
Return: 100000
